# fold increase vs WT annotations
# SYSTEM NAME: T1, FcγRIIB (form not stated) (UniProt P31994 43-217, limits assumed)
# T1 construct: also called FcγRIIB (ELISA)
# T1 sequence (looked up): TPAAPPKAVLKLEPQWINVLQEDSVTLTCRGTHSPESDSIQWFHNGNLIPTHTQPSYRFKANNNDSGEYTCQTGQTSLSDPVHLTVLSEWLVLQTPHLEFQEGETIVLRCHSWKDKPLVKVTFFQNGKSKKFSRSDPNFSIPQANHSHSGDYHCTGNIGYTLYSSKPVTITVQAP
# ASSAY INFO: ELISA

BINDER | fold increase vs WT [x]
ch4-4-20 V282E, V369I, L406F (antibody) heavy: ASTKGPSVFPLAPSSKSTSGGTAALGCLVKDYFPEPVTVSWNSGALTSGVHTFPAVLQSSGLYSLSSVVTVPSSSLGTQTYICNVNHKPSNTKVDKKVEPKSCDKTHTCPPCPAPELLGGPSVFLFPPKPKDTLMISRTPEVTCVVVDVSHEDPEVKFNWYVDGEEVHNAKTKPREEQYNSTYRVVSVLTVLHQDWLNGKEYKCKVSNKALPAPIEKTISKAKGQPREPQVYTLPPSRDELTKNQVSLTCLIKGFYPSDIAVEWESNGQPENNYKTTPPVLDSDGSFFFYSKLTVDKSRWQQGNVFSCSVMHEALHNHYTQKSLSLSPGK | 7
ch4-4-20 A231V, Q386H, V412M (antibody) heavy: ASTKGPSVFPLAPSSKSTSGGTAALGCLVKDYFPEPVTVSWNSGALTSGVHTFPAVLQSSGLYSLSSVVTVPSSSLGTQTYICNVNHKPSNTKVDKKVEPKSCDKTHTCPPCPVPELLGGPSVFLFPPKPKDTLMISRTPEVTCVVVDVSHEDPEVKFNWYVDGVEVHNAKTKPREEQYNSTYRVVSVLTVLHQDWLNGKEYKCKVSNKALPAPIEKTISKAKGQPREPQVYTLPPSRDELTKNQVSLTCLVKGFYPSDIAVEWESNGHPENNYKTTPPVLDSDGSFFLYSKLTMDKSRWQQGNVFSCSVMHEALHNHYTQKSLSLSPGK | 6
ch4-4-20 V273I, K326E, L328I, P396L (antibody) heavy: ASTKGPSVFPLAPSSKSTSGGTAALGCLVKDYFPEPVTVSWNSGALTSGVHTFPAVLQSSGLYSLSSVVTVPSSSLGTQTYICNVNHKPSNTKVDKKVEPKSCDKTHTCPPCPAPELLGGPSVFLFPPKPKDTLMISRTPEVTCVVVDVSHEDPEIKFNWYVDGVEVHNAKTKPREEQYNSTYRVVSVLTVLHQDWLNGKEYKCKVSNEAIPAPIEKTISKAKGQPREPQVYTLPPSRDELTKNQVSLTCLVKGFYPSDIAVEWESNGQPENNYKTTPLVLDSDGSFFLYSKLTVDKSRWQQGNVFSCSVMHEALHNHYTQKSLSLSPGK | 10.8
ch4-4-20 P247L, I253N, K334N (antibody) heavy: ASTKGPSVFPLAPSSKSTSGGTAALGCLVKDYFPEPVTVSWNSGALTSGVHTFPAVLQSSGLYSLSSVVTVPSSSLGTQTYICNVNHKPSNTKVDKKVEPKSCDKTHTCPPCPAPELLGGPSVFLFPPKLKDTLMNSRTPEVTCVVVDVSHEDPEVKFNWYVDGVEVHNAKTKPREEQYNSTYRVVSVLTVLHQDWLNGKEYKCKVSNKALPAPIENTISKAKGQPREPQVYTLPPSRDELTKNQVSLTCLVKGFYPSDIAVEWESNGQPENNYKTTPPVLDSDGSFFLYSKLTVDKSRWQQGNVFSCSVMHEALHNHYTQKSLSLSPGK | 2.5
ch4-4-20 K326I, S408N, P396L (antibody) heavy: ASTKGPSVFPLAPSSKSTSGGTAALGCLVKDYFPEPVTVSWNSGALTSGVHTFPAVLQSSGLYSLSSVVTVPSSSLGTQTYICNVNHKPSNTKVDKKVEPKSCDKTHTCPPCPAPELLGGPSVFLFPPKPKDTLMISRTPEVTCVVVDVSHEDPEVKFNWYVDGVEVHNAKTKPREEQYNSTYRVVSVLTVLHQDWLNGKEYKCKVSNIALPAPIEKTISKAKGQPREPQVYTLPPSRDELTKNQVSLTCLVKGFYPSDIAVEWESNGQPENNYKTTPLVLDSDGSFFLYNKLTVDKSRWQQGNVFSCSVMHEALHNHYTQKSLSLSPGK | 9.3
ch4-4-20 P343S, P353L, S375I, S383N (antibody) heavy: ASTKGPSVFPLAPSSKSTSGGTAALGCLVKDYFPEPVTVSWNSGALTSGVHTFPAVLQSSGLYSLSSVVTVPSSSLGTQTYICNVNHKPSNTKVDKKVEPKSCDKTHTCPPCPAPELLGGPSVFLFPPKPKDTLMISRTPEVTCVVVDVSHEDPEVKFNWYVDGVEVHNAKTKPREEQYNSTYRVVSVLTVLHQDWLNGKEYKCKVSNKALPAPIEKTISKAKGQSREPQVYTLPLSRDELTKNQVSLTCLVKGFYPIDIAVEWENNGQPENNYKTTPPVLDSDGSFFLYSKLTVDKSRWQQGNVFSCSVMHEALHNHYTQKSLSLSPGK | 6
ch4-4-20 F243L, V305I, A378D, F404S, P396L (antibody, also called MgFc54) heavy: ASTKGPSVFPLAPSSKSTSGGTAALGCLVKDYFPEPVTVSWNSGALTSGVHTFPAVLQSSGLYSLSSVVTVPSSSLGTQTYICNVNHKPSNTKVDKKVEPKSCDKTHTCPPCPAPELLGGPSVFLLPPKPKDTLMISRTPEVTCVVVDVSHEDPEVKFNWYVDGVEVHNAKTKPREEQYNSTYRVVSILTVLHQDWLNGKEYKCKVSNKALPAPIEKTISKAKGQPREPQVYTLPPSRDELTKNQVSLTCLVKGFYPSDIDVEWESNGQPENNYKTTPLVLDSDGSSFLYSKLTVDKSRWQQGNVFSCSVMHEALHNHYTQKSLSLSPGK | 5.4
ch4-4-20 C229Y, A287T, V379M, P396L, L443V (antibody) heavy: ASTKGPSVFPLAPSSKSTSGGTAALGCLVKDYFPEPVTVSWNSGALTSGVHTFPAVLQSSGLYSLSSVVTVPSSSLGTQTYICNVNHKPSNTKVDKKVEPKSCDKTHTCPPYPAPELLGGPSVFLFPPKPKDTLMISRTPEVTCVVVDVSHEDPEVKFNWYVDGVEVHNTKTKPREEQYNSTYRVVSVLTVLHQDWLNGKEYKCKVSNKALPAPIEKTISKAKGQPREPQVYTLPPSRDELTKNQVSLTCLVKGFYPSDIAMEWESNGQPENNYKTTPLVLDSDGSFFLYSKLTVDKSRWQQGNVFSCSVMHEALHNHYTQKSLSVSPGK | 10
